The origin of these recorded values is patent US5834453A.

Below, each of the compounds is paired with its reported MIC value.
- Test system: K. pneumoniae (13883)
- test name: MIC, micro-broth dilution
- Assay type: cell-based
- test conditions: Klebsiella pneumoniae, 24 h, read-out: ANTIMICROBIAL ACTIVITY (MIC)
Give the quantity in µg/mL, number only.

C[C@H](CCC(=O)NCCCCN)[C@H]1CC[C@H]2[C@@H]3CC[C@@H]4C[C@H](O)CC[C@]4(C)[C@H]3C[C@H](O)[C@]12C = 50
C[C@H](CCC(=O)NCCCNCCCCNCCCN)[C@H]1CC[C@H]2[C@@H]3CC[C@@H]4C[C@H](O)CC[C@]4(C)[C@H]3C[C@H](O)[C@]12C [SM-7, deoxycholic acid-spermine conjugate] = 3.13
C[C@H](CCC(=O)NCCNCCNCCN)[C@H]1CC[C@H]2[C@@H]3[C@H](O)C[C@@H]4C[C@H](O)CC[C@]4(C)[C@H]3C[C@H](O)[C@]12C = 50

Please examine the following record next.
Task: Param item = C[C@H](CCC(=O)NCCNCCNCCN)[C@H]1CC[C@H]2[C@@H]3CC[C@@H]4C[C@H](O)CC[C@]4(C)[C@H]3CC[C@]12C ; retrieve measured MIC.
Output: 6.25

====

- Tested on: S. aureus (29213)
- test name: MIC, micro-broth dilution
- Format: cell-based
- test conditions: Staphylococcus aureus, 24 h, read-out: ANTIMICROBIAL ACTIVITY (MIC)
Below, each of the compounds is paired with its reported MIC value.
Mention the unit after the number when you answer.

C[C@H](CCC(=O)NCCCNCCCCNCCCN)[C@H]1CC[C@H]2[C@@H]3[C@H](O)C[C@@H]4C[C@H](O)CC[C@]4(C)[C@H]3C[C@H](O)[C@]12C [SM-13, cholic acid-spermine conjugate] = 12.5 µg/mL
C[C@H](CCC(=O)NCCNCCNCCN)[C@H]1CC[C@H]2[C@@H]3CC[C@@H]4CCCC[C@]4(C)[C@H]3CC[C@]12C = 3.13 µg/mL

Please examine the following record next.
Task: Param item = C[C@H](CCC(=O)NCCNCCNCCN)[C@H]1CC[C@H]2[C@@H]3CC[C@@H]4C[C@H](O)CC[C@]4(C)[C@H]3C[C@H](O)[C@]12C ; retrieve measured MIC.
Output: 12.5 µg/mL

====

- test name: Hemolytic activity, minimal hemolytic concentration (MHC);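 for MCC: MCC here is the minimal hemolytic concentration (MHC)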
- Type: cell-based, sheep
- test conditions: sheep, red blood cells
measured quantity: MCC at 24 h (µg/mL)
Give the quantity in µg/mL, number only.

Would you please look over these solved cases?
C[C@H](CCC(=O)NCCNCCNCCN)[C@H]1CC[C@H]2[C@@H]3CC[C@@H]4CCCC[C@]4(C)[C@H]3CC[C@]12C = 3.13
C[C@H](CCC(=O)NCCNCCNCCN)[C@H]1CC[C@H]2[C@@H]3CC[C@@H]4C[C@H](O)CC[C@]4(C)[C@H]3CC[C@]12C = 50

Please examine the following record next.
Task: Param item = C[C@H](CCCNCCCCN)[C@H]1CC[C@H]2[C@@H]3CC[C@@H]4C[C@H](O)CC[C@]4(C)[C@H]3C[C@H](O)[C@]12C ; retrieve measured MCC at 24 h.
Output: 50

====

- test name: Hemolytic activity, minimal hemolytic concentration (MHC)
- Format: cell-based, sheep
- test conditions: sheep red blood cells, 24 hours at 37° C. in saline
measured quantity: minimal hemolytic concentration (MHC) at 24 h

Task: Param item = C[C@H](C(=O)NCCCNCCCCNCCCN)[C@H]1CC[C@H]2[C@@H]3CC=C4C[C@@H](O)CC[C@]4(C)[C@H]3CC[C@]12C ; retrieve measured minimal hemolytic concentration (MHC) at 24 h.
Output: 100 µg/mL

Task: Param item = C[C@H](C(=O)NCCCNCCCCNCCCN)[C@H]1CC[C@H]2[C@@H]3CC=C4C[C@@H](OS(=O)(=O)O)CC[C@]4(C)[C@H]3CC[C@]12C ; retrieve measured minimal hemolytic concentration (MHC) at 24 h.
Output: > 100 µg/mL

Task: Param item = C[C@H](CCC(=O)NCCCNCCCCNCCCN)[C@H]1CC[C@H]2[C@@H]3CC[C@@H]4C[C@H](O)CC[C@]4(C)[C@H]3CC[C@]12C ; retrieve measured minimal hemolytic concentration (MHC) at 24 h.
Output: 50 µg/mL

Task: Param item = C[C@H](CCC(=O)NCCCNCCCCNCCCN)[C@H]1CC[C@H]2[C@@H]3[C@H](O)C[C@@H]4C[C@H](O)CC[C@]4(C)[C@H]3C[C@H](O)[C@]12C [SM-13, cholic acid-spermine conjugate] ; retrieve measured minimal hemolytic concentration (MHC) at 24 h.
Output: > 100 µg/mL

Task: Param item = C[C@H](CCC(=O)NCCCNCCCCNCCCN)[C@H]1CC[C@H]2[C@@H]3CC[C@@H]4C[C@H](O)CC[C@]4(C)[C@H]3C[C@H](O)[C@]12C [SM-7, deoxycholic acid-spermine conjugate] ; retrieve measured minimal hemolytic concentration (MHC) at 24 h.
Output: 12.5 µg/mL
